Items are presented alongside their recorded AUC.
- EXPERIMENT SUMMARY: AUC in rat at 2 mg/kg, po
- Assay type: ADME, organism-based
- Parameters: dose 2 mg/kg, route oral
- CONDITION NOTES: plasma

SUBSTANCE SMILES	UNIT SPEC	AUC
Cc1cn(-c2cc(NC(=O)c3cccc(-c4ccc5nc(NC(=O)C6CC6)sc5n4)c3)cc(C(F)(F)F)c2)cn1	ng·h/mL	136
CCN1CCN(Cc2ccc(NC(=O)c3cccc(-c4ccc5nc(NC(=O)C6CC6)sc5n4)c3)cc2C(F)(F)F)CC1	ng·h/mL	462

* * *

# AUC annotations
- EXPERIMENT SUMMARY: AUC in rat at 1 mg/kg, iv
- Assay type: ADME, organism-based
- Design: dose 1 mg/kg, route intravenous
- CONDITION NOTES: plasma

SUBSTANCE SMILES	UNIT SPEC	AUC
CCN1CCN(Cc2ccc(NC(=O)c3cccc(-c4ccc5nc(NC(=O)C6CC6)sc5n4)c3)cc2C(F)(F)F)CC1	ng·h/mL	1230
Cc1cn(-c2cc(NC(=O)c3cccc(-c4ccc5nc(NC(=O)C6CC6)sc5n4)c3)cc(C(F)(F)F)c2)cn1	ng·h/mL	1850

* * *

Reported EC50 values follow for various compounds
- EXPERIMENT SUMMARY: Cytotoxicity against wild type mouse BA/F3 cells
- Assay type: cell-based
- CONDITION NOTES: BaF3

SUBSTANCE SMILES	EC50
O=C(Nc1ccc(-n2ccnc2)cc1)c1cccc(-c2ccc3nc(NC(=O)C4CC4)sc3n2)c1	> 10 µM
CCN1CCN(Cc2ccc(C(=O)Nc3cccc(-c4ccc5nc(NC(=O)C6CC6)sc5n4)c3)cc2C(F)(F)F)CC1	> 10 µM
Nc1nc2ccc(-c3cccc(C(=O)Nc4cccc(C(F)(F)F)c4)c3)nc2s1	> 10 µM
CC(=O)Nc1nc2ccc(-c3cccc(C(=O)Nc4cccc(C(F)(F)F)c4)c3)nc2s1	> 10 µM
CCN1CCN(Cc2ccc(NC(=O)Nc3cccc(-c4ccc5nc(NC(=O)C6CC6)sc5n4)c3)cc2C(F)(F)F)CC1	0.69 µM
CC(=O)N1CCN(CCC(=O)Nc2nc3ccc(-c4cccc(C(=O)Nc5cccc(C(F)(F)F)c5)c4)nc3s2)CC1	> 10 µM
CCN1CCN(Cc2ccc(NC(=O)c3ccc(C)c(-c4ccc5nc(NC(=O)C6CC6)sc5n4)c3)cc2C(F)(F)F)CC1	1.23 µM
O=C(Nc1cccc(C(F)(F)F)c1)c1cccc(-c2ccc3nc(NC(=O)C4CCNCC4)sc3n2)c1	> 10 µM
Cc1cn(-c2cc(NC(=O)c3ccc(F)c(-c4ccc5nc(NC(=O)C6CC6)sc5n4)c3)cc(C(F)(F)F)c2)cn1	> 10 µM
CCN1CCN(Cc2ccc(NC(=O)c3cccc(-c4ccc5nc(NC(C)=O)sc5n4)c3)cc2C(F)(F)F)CC1	4.16 µM
Cc1cn(-c2cc(NC(=O)Nc3cccc(-c4ccc5nc(NC(=O)C6CC6)sc5n4)c3)cc(C(F)(F)F)c2)cn1	> 10 µM
Cc1nc(Nc2nc3ccc(-c4cccc(C(=O)Nc5cccc(C(F)(F)F)c5)c4)nc3s2)cc(N2CCNCC2)n1	6.74 µM
CCN1CCN(Cc2ccc(NC(=O)c3ccc(F)c(-c4ccc5nc(NC(=O)C6CC6)sc5n4)c3)cc2C(F)(F)F)CC1	> 10 µM
Cc1cn(-c2cc(NC(=O)c3cccc(-c4ccc5nc(NC(=O)C6CC6)sc5n4)c3)cc(C(F)(F)F)c2)cn1	1.99 µM
CCN1CCN(Cc2ccc(NC(=O)c3cccc(-c4ccc5nc(Nc6ccccn6)sc5n4)c3)cc2C(F)(F)F)CC1	3.53 µM
CCN1CCN(Cc2ccc(NC(=O)c3cccc(-c4ccc5nc(N)sc5n4)c3)cc2C(F)(F)F)CC1	> 10 µM
O=C(Nc1cccc(C(F)(F)F)c1)c1cccc(-c2ccc3nc(NC(=O)C4CC4)sc3n2)c1	0.91 µM
O=C(Nc1nc2ccc(-c3cccc(C(=O)Nc4cccc(C(F)(F)F)c4)c3)nc2s1)NC1CCNCC1	> 10 µM
O=C(Nc1cccc(C(F)(F)F)c1)c1cccc(-c2ccc3nc(Nc4ccc(S(=O)(=O)N5CCNCC5)cc4)sc3n2)c1	> 10 µM

* * *

- EXPERIMENT SUMMARY: Cytotoxicity against mouse BA/F3 cells expressing wild type Bcr-Abl
- Type: functional, cell-based
- CONDITION NOTES: BaF3
pEC50: −log10 of the molar value.
Outcome label depends on pEC50 relative to 6: at/above gives condition met, below gives condition not met.

SUBSTANCE SMILES	QUALITATIVE LABEL
O=C(Nc1cccc(C(F)(F)F)c1)c1cccc(-c2ccc3nc(Nc4ccc(S(=O)(=O)N5CCNCC5)cc4)sc3n2)c1	condition not met
O=C(Nc1nc2ccc(-c3cccc(C(=O)Nc4cccc(C(F)(F)F)c4)c3)nc2s1)NC1CCNCC1	condition not met
CCN1CCN(Cc2ccc(NC(=O)c3cccc(-c4ccc5nc(N)sc5n4)c3)cc2C(F)(F)F)CC1	condition not met
O=C(Nc1cccc(C(F)(F)F)c1)c1cccc(-c2ccc3nc(NC(=O)C4CCNCC4)sc3n2)c1	condition not met
CC(=O)N1CCN(CCC(=O)Nc2nc3ccc(-c4cccc(C(=O)Nc5cccc(C(F)(F)F)c5)c4)nc3s2)CC1	condition not met
CCN1CCN(Cc2ccc(C(=O)Nc3cccc(-c4ccc5nc(NC(=O)C6CC6)sc5n4)c3)cc2C(F)(F)F)CC1	condition met
Nc1nc2ccc(-c3cccc(C(=O)Nc4cccc(C(F)(F)F)c4)c3)nc2s1	condition not met
O=C(Nc1ccc(-n2ccnc2)cc1)c1cccc(-c2ccc3nc(NC(=O)C4CC4)sc3n2)c1	condition not met
CCN1CCN(Cc2ccc(NC(=O)c3cccc(-c4ccc5nc(Nc6ccccn6)sc5n4)c3)cc2C(F)(F)F)CC1	condition met
CCN1CCN(Cc2ccc(NC(=O)c3cccc(-c4ccc5nc(NC(C)=O)sc5n4)c3)cc2C(F)(F)F)CC1	condition met
O=C(Nc1cccc(C(F)(F)F)c1)c1cccc(-c2ccc3nc(NC(=O)C4CC4)sc3n2)c1	condition met
Cc1nc(Nc2nc3ccc(-c4cccc(C(=O)Nc5cccc(C(F)(F)F)c5)c4)nc3s2)cc(N2CCNCC2)n1	condition not met
O=C(Nc1ccc(N2CCNCC2)c(C(F)(F)F)c1)c1cccc(-c2ccc3nc(NC(=O)C4CC4)sc3n2)c1	condition not met
